# MEASUREMENT_PROTOCOL: in vitro
# TEST_SETTINGS: African green monkey
Assign CC50 to each entry below.
Give bare numbers, in µM.

See these solved cases before continuing.
• CN1CCN(c2ccc3ncn(C(c4ccccc4)c4ccccc4)c3c2)CC1 [MBX 3540] = 58
• CN1CCN(c2ccc([N+](=O)[O-])c(NC3(c4ccccc4)CC3)c2)CC1 [MBX 4295] = 58

Give measured CC50 for every item shown.
1. Cc1nc2ccc(N3CCN(C)CC3)cc2n1C(c1ccccc1)c1ccccc1 [MBX 3539]
2. O=[N+]([O-])c1ccc(-c2ccncc2)cc1NC(c1ccccc1)c1ccccc1 [MBX 4277]
3. CN1CCN(c2ccc([N+](=O)[O-])c(NC(c3ccccc3)c3ccc(Cl)cc3)c2)CC1 (centres unmarked) [MBX 3644]
4. CC(C)N(CCNc1ccc2ncn(C(c3ccccc3)c3ccccc3)c2c1)C(C)C [MBX 4253, 2,2,2-trifluoroacetate]

Outgoing:
[77, 40, 18, 95]
